# target.or.system: Glycogen synthase kinase-3 alpha (Homo sapiens)
# protocol.text: concentration-response blocking of human GSK3A – biochemical, luminescence, cell-free homogeneous, retest, dose response (AID 463203)
# experimental.conditions: GSK-3 alpha enzyme, ADP-Glo luminescence, 60 min
Activity calls are given as the source filed them.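 The calls were made as follows: active = more than half of replicate measurements showing over 20% loss of kinase signal relative to plate controls; inconclusive = some but at most half of replicates over 20% loss; inactive = no replicate over 20% signal loss.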
Select the correct class. Options are yes (1) = active, no (0) = inactive and nothing else.

Would you please look over these solved cases?
Cc1cccc(NC(=O)c2sc(Cl)nc2-c2ccccc2)c1	no (0)
CCOC(=O)c1cnn(Cc2ccccc2Cl)c1N	no (0)
CC1(c2ccccc2)CC(C)(C)N2C(=O)/C(=C3\SC(=S)NC3=O)c3cccc1c32 (stereo unspecified)	no (0)
C/C(=N\NC(=O)c1nnn(-c2nonc2N)c1-c1ccccc1)c1cccnc1	yes (1)
CCC(=O)c1ccc(OCC(O)CN2CCCCC2)cc1 (stereo unspecified)	no (0)

Here is the next item to consider.
Query :: Hi team, can someone confirm the assay call for CCOc1cccc2sc(=NC(=O)c3ccco3)n(CC(=O)OC)c12 ?
Result :: yes (1)

---

# target.or.system: Glycogen synthase kinase-3 alpha (Homo sapiens)
# protocol.text: concentration-response blocking of human GSK3A – biochemical, luminescence, cell-free homogeneous, retest, dose response (AID 463203)
# experimental.conditions: GSK-3 alpha enzyme, ADP-Glo luminescence, 60 min
Calls of active or inactive are those of the source.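 The calls were made as follows: active = more than half of replicate measurements showing over 20% loss of kinase signal relative to plate controls; inconclusive = some but at most half of replicates over 20% loss; inactive = no replicate over 20% signal loss.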
Select the correct class. Options are active, inactive and nothing else.

CSc1ccc(C2C3(C#N)C(N)=NC4(OCCO4)C23C#N)cc1 (stereo not drawn)	inactive
COc1ccc(-c2cc(C(F)(F)F)nc(SCCC(=O)NCc3ccccc3)n2)cc1	inactive
COc1ccc(-c2noc(CSc3nc(-c4ccccc4)cc(=O)[nH]3)n2)cc1	inactive
Cc1ccc(N=CC2=C(O)CC(C)(C)CC2=O)nc1	inactive
O=C1CC(c2cccs2)CC2=C1C(c1ccccc1)n1ncnc1N2 (stereo not drawn)	inactive

Query :: Hi team, can someone confirm the assay call for COc1ccccc1NC(=O)CSc1nnc(-c2ccc(C)cc2)o1 ?
Result :: inactive

Query :: Hi team, can someone confirm the assay call for Cc1cccc(C(=O)OCC(=O)Nc2c(C)n(C)n(-c3ccccc3)c2=O)c1 ?
Result :: inactive

Query :: Hi team, can someone confirm the assay call for C(=N\Nc1ncnc2sc3c(c12)CCC3)/c1ccncc1 ?
Result :: active

Query :: Hi team, can someone confirm the assay call for COc1ccc(CNc2cc(NCCCO)c([N+](=O)[O-])c3nonc23)cc1 ?
Result :: active

Query :: Hi team, can someone confirm the assay call for C[C@H]1CCCC(=O)CCCCCc2cc(O)cc(O)c2C(=O)O1 ?
Result :: active

---

# target.or.system: Glycogen synthase kinase-3 alpha (Homo sapiens) (UniProt P49840)
# Sequence (P49840 whole entry, looked up): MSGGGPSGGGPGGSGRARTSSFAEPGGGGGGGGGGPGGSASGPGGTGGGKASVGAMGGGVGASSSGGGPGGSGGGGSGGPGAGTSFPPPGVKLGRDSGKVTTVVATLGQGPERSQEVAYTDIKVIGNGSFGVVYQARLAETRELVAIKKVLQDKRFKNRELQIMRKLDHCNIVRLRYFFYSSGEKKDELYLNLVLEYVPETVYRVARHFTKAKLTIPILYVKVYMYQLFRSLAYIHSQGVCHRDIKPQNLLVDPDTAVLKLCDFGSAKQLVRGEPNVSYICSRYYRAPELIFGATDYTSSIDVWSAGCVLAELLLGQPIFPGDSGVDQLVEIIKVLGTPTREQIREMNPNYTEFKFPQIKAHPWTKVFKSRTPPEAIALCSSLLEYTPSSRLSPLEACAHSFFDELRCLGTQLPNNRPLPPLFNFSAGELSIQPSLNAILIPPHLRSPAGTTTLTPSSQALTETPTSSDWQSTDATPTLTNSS
# protocol.text: concentration-response blocking of human GSK3A – biochemical, luminescence, cell-free homogeneous, retest, dose response (AID 463203)
# experimental.conditions: GSK-3 alpha enzyme, ADP-Glo luminescence, 60 min
The source made the active and inactive calls.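 Rule for the calls: active = more than half of replicate measurements showing over 20% loss of kinase signal relative to plate controls; inconclusive = some but at most half of replicates over 20% loss; inactive = no replicate over 20% signal loss.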
Select the correct class. Options are 1.0 for active, 0.0 for inactive and nothing else.

Would you please look over these solved cases?
Cc1ccc2oc(=O)c3cnn(CC(=O)N4CCCCC4C)c3c2c1 (configuration not stated)	0.0
CCOc1ccc(-c2nnc(N)s2)cc1	0.0
Fc1ccc(/C=N/Nc2nccnc2Cl)cc1	0.0

Query :: Hi team, can someone confirm the assay call for CCOC(=O)CN1CC23C=CC(O2)C(C(=O)O)C3C1=O (configuration not stated) ?
Result :: 0.0

---

# target.or.system: Glycogen synthase kinase-3 alpha (Homo sapiens) (UniProt P49840)
# protocol.text: concentration-response blocking of human GSK3A – biochemical, luminescence, cell-free homogeneous, retest, dose response (AID 463203)
# experimental.conditions: GSK-3 alpha enzyme, ADP-Glo luminescence, 60 min
Calls of active or inactive are those of the source.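 How the source made its calls: active means more than half of replicate measurements showing over 20% loss of kinase signal relative to plate controls; inconclusive means some but at most half of replicates over 20% loss; inactive means no replicate over 20% signal loss.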
Select the correct class. Options are active, inactive and nothing else.

Would you please look over these solved cases?
O=C(Nc1nnc(-c2ccco2)s1)C1CCCCC1	inactive
COCCNC(=O)Cn1cnc([N+](=O)[O-])n1	inactive
CCSC1(SCC)N=C(N)C2(C#N)C(c3ccc(F)cc3)C12C#N (stereo unspecified)	inactive
CCOC(=O)c1cc(-c2ccc(C)cc2)n(CCC(=O)NC(C)CC)c1C (stereo unspecified)	inactive
c1ccc2c(c1)ccc1nnc(-c3ccc4c(c3)OCO4)n12	inactive

Here is the next item to consider.
Query :: Hi team, can someone confirm the assay call for COC(=O)c1c(C)c(OC(=O)c2c(C)cc(O)c(C=O)c2O)cc(C)c1O ?
Result :: inactive

---

# target.or.system: Glycogen synthase kinase-3 alpha (Homo sapiens)
# protocol.text: concentration-response blocking of human GSK3A – biochemical, luminescence, cell-free homogeneous, retest, dose response (AID 463203)
# experimental.conditions: GSK-3 alpha enzyme, ADP-Glo luminescence, 60 min
The source made the active and inactive calls.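 How the source made its calls: active means more than half of replicate measurements showing over 20% loss of kinase signal relative to plate controls; inconclusive means some but at most half of replicates over 20% loss; inactive means no replicate over 20% signal loss.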
Select the correct class. Options are active, inactive and nothing else.

O=C1CCCC2=C1C(c1ccc(Br)cc1)c1c([nH]c(=S)[nH]c1=O)N2 (stereo unspecified)	inactive
O=c1cc(-c2ccncc2)oc2c1ccc1ccccc12	active
OCc1nnn(-c2ccccc2)c1CO	inactive
Cc1sc2ncnc(NCCN3CCOCC3)c2c1C	inactive
CCOC(=O)c1cnc2c(C(F)(F)F)cccc2c1N1CCN(C)CC1	inactive

Query :: Hi team, can someone confirm the assay call for C/C(=N\NC(=O)c1nnn(-c2nonc2N)c1-c1cccs1)c1cccc(O)c1 ?
Result :: active

---

# target.or.system: UniProt P49840
# protocol.text: concentration-response blocking of human GSK3A – biochemical, luminescence, cell-free homogeneous, retest, dose response (AID 463203)
# experimental.conditions: GSK-3 alpha enzyme, ADP-Glo luminescence, 60 min
Activity calls are given as the source filed them.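 How the source made its calls: active means more than half of replicate measurements showing over 20% loss of kinase signal relative to plate controls; inconclusive means some but at most half of replicates over 20% loss; inactive means no replicate over 20% signal loss.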
Select the correct class. Options are Yes (active), No (inactive) and nothing else.

NC1=NC(=O)/C(=C\c2ccco2)S1	No
CCOC(=O)c1cc[nH]c1C	No
Cc1nn2cc(-c3ccccc3)nc2[nH]c1=O	No

Here is the next item to consider.
Query :: Hi team, can someone confirm the assay call for Cc1ccc(-c2cc(-c3n[nH]c(=S)o3)c3ccccc3n2)cc1 ?
Result :: Yes

---

# target.or.system: Glycogen synthase kinase-3 alpha (Homo sapiens) (UniProt P49840)
# protocol.text: concentration-response blocking of human GSK3A – biochemical, luminescence, cell-free homogeneous, retest, dose response (AID 463203)
# experimental.conditions: GSK-3 alpha enzyme, ADP-Glo luminescence, 60 min
The source made the active and inactive calls.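 The calls were made as follows: active = more than half of replicate measurements showing over 20% loss of kinase signal relative to plate controls; inconclusive = some but at most half of replicates over 20% loss; inactive = no replicate over 20% signal loss.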
Select the correct class. Options are Yes (active), No (inactive) and nothing else.

COc1ccc(C(=O)O/N=C(\N)c2ccccn2)c(OC)c1	No
CCOC(=O)c1cc(-c2ccc(F)cc2)n(CC(=O)NC(C)CC)c1C (stereo unspecified)	No
Cc1cc(N/N=C/c2ccccc2Br)nc2ccccc12	No
CC1CCCCC12NC(=O)N(CC(=O)Nc1sc3c(c1C(N)=O)CCC3)C2=O (stereo unspecified)	Yes
Cc1ccc(-n2nnnc2CSc2nnc(-c3ccc(O)cc3)o2)cc1	Yes

Here is the next item to consider.
Query :: Hi team, can someone confirm the assay call for COc1cc(/C=C2/NC(=O)NC2=O)cc(Br)c1OCc1cccc(C(=O)O)c1 ?
Result :: Yes

---

# target.or.system: Glycogen synthase kinase-3 alpha (Homo sapiens) (UniProt P49840)
# protocol.text: concentration-response blocking of human GSK3A – biochemical, luminescence, cell-free homogeneous, retest, dose response (AID 463203)
# experimental.conditions: GSK-3 alpha enzyme, ADP-Glo luminescence, 60 min
Active and inactive are the calls of the source.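 The calls were made as follows: active = more than half of replicate measurements showing over 20% loss of kinase signal relative to plate controls; inconclusive = some but at most half of replicates over 20% loss; inactive = no replicate over 20% signal loss.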
Select the correct class. Options are True = active, False = inactive and nothing else.

N#Cc1c(Nc2ccccc2)c(/C=N/NCCO)c[nH]c1=O	False
Cc1ccccc1OCCSc1nnc(C)n1-c1ccccc1	False
O=C(CSc1nc2[nH]ncc2c(=O)n1-c1ccccc1Br)NCc1ccccc1Cl	False
CCN(CC)C(=O)c1oc2ccc(S(=O)(=O)N3CCCCCC3)cc2c1C	False
CC(CC(=O)Nc1ncc([N+](=O)[O-])s1)c1ccccc1 (stereo unspecified)	True
CCOC(=O)c1ccc(NC(=O)CSCc2ccco2)cc1	False

Query :: Hi team, can someone confirm the assay call for Cc1cc(N2CCN(c3ccccc3)CC2)n2c(n1)nc1ccccc12 ?
Result :: True

Query :: Hi team, can someone confirm the assay call for Cc1cc(NC(=O)CSc2nc3ccccc3c(=O)n2CCCC(=O)NCc2ccco2)n[nH]1 ?
Result :: False

Query :: Hi team, can someone confirm the assay call for CCn1c2ccc(Cl)cc2c2nc3ccccc3nc21 ?
Result :: False

Query :: Hi team, can someone confirm the assay call for Cc1ccc2c(c1)Oc1ccc(NC(=O)CCCl)cc1C(=O)N2 ?
Result :: False

Query :: Hi team, can someone confirm the assay call for Brc1ccc(-c2nc3ncccn3c2NC2CCCCC2)o1 ?
Result :: True

---

# target.or.system: Glycogen synthase kinase-3 alpha (Homo sapiens)
# protocol.text: concentration-response blocking of human GSK3A – biochemical, luminescence, cell-free homogeneous, retest, dose response (AID 463203)
# experimental.conditions: GSK-3 alpha enzyme, ADP-Glo luminescence, 60 min
Calls of active or inactive are those of the source.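 How the source made its calls: active means more than half of replicate measurements showing over 20% loss of kinase signal relative to plate controls; inconclusive means some but at most half of replicates over 20% loss; inactive means no replicate over 20% signal loss.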
Select the correct class. Options are label 1 (active), label 0 (inactive) and nothing else.

Would you please look over these solved cases?
S=C(Nc1cccc(Cl)c1)Nc1cccc2cnccc12	label 0
CC(C)c1c(C(=O)N/N=C/c2ccncc2)nnn1-c1nonc1N	label 0
O=c1ccc(-c2nc3ccccc3n2Cc2ccc(Cl)cc2)c[nH]1	label 0
COC(=O)C1=C(C)N(CC(C)C)C(=O)/C1=C\c1cccs1	label 0

Query :: Hi team, can someone confirm the assay call for Cc1cc(C(C#N)c2cccc(Cl)c2)n2ncnc2n1 (stereo unspecified) ?
Result :: label 1

Query :: Hi team, can someone confirm the assay call for CN(C(=O)/C=C/c1ccc2c(c1)OCO2)c1ccccc1 ?
Result :: label 1
